STUDY SYSTEM: Mitogen-activated protein kinase 9 (Homo sapiens, UniProt P45984)
Sequence (P45984 whole entry): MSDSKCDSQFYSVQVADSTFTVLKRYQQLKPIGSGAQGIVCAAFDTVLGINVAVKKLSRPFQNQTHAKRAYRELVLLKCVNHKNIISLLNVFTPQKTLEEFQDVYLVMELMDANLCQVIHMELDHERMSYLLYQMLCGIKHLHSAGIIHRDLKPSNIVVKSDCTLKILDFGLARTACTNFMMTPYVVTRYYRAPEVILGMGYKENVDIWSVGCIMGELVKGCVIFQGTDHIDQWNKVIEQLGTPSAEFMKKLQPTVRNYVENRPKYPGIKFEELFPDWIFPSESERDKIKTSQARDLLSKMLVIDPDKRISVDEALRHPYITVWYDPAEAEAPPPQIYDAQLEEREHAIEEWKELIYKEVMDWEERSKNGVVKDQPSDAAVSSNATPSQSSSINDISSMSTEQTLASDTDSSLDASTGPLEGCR
PROCEDURE TEXT: Inhibition of JNK2 by ATF2 phosphorylation assay
OBSERVABLE: pIC50
Bear in mind: pIC50 is minus log10 of a mol/L concentration; give just that figure.

Use these answered entries as a reference point.
Form: item CS(=O)(=O)c1ccc(CNC(=O)c2cc(N)c(C#N)c(NCCc3ccccc3)n2)cc1 ; test system Mitogen-activated protein kinase 9 (Homo sapiens, UniProt P45984); pIC50: 6.00

Form: item CCOc1nc(C(=O)NCc2ccc(S(C)(=O)=O)cc2)cc(N)c1C#CCCO ; test system Mitogen-activated protein kinase 9 (Homo sapiens, UniProt P45984); pIC50: 5.34

Form: item CCOc1nc(C(=O)NCc2ccc(S(C)(=O)=O)cc2)cc(N)c1C#C/C=C/CO ; test system Mitogen-activated protein kinase 9 (Homo sapiens, UniProt P45984); pIC50: 5.36

Form: item C#Cc1c(N)cc(C(=O)NCc2ccc(S(C)(=O)=O)cc2)nc1OCC ; test system Mitogen-activated protein kinase 9 (Homo sapiens, UniProt P45984); pIC50: 6.52

From here, focus on the item given below.
Form: item C[C@H](CO)Nc1nc(C(=O)NCc2ccc(S(C)(=O)=O)cc2)cc(N)c1C#N ; test system Mitogen-activated protein kinase 9 (Homo sapiens, UniProt P45984); pIC50: 6.49

====

STUDY SYSTEM: Mitogen-activated protein kinase 9 (Homo sapiens)
PROCEDURE TEXT: Inhibition of JNK2 by ATF2 phosphorylation assay
Format: functional
OBSERVABLE: pIC50
Bear in mind: pIC50 is minus log10 of a mol/L concentration; give just that figure.

# pIC50 of CS(=O)(=O)c1ccc(CNC(=O)c2cc(N)c(C#N)c(NCc3ccccc3)n2)cc1 = 5.33

New cases:
# pIC50 of CC(C)Nc1nc(C(=O)NCc2ccc(S(C)(=O)=O)cc2)cc(N)c1C#N = 7.08

# pIC50 of CS(=O)(=O)c1ccc(CNC(=O)c2cc(N)c(C#N)c(NC3CCCC3)n2)cc1 = 6.54

# pIC50 of CS(=O)(=O)c1ccc(CNC(=O)c2cc(N)c(C#N)c(NC3CC3)n2)cc1 = 7.16

====

STUDY SYSTEM: Mitogen-activated protein kinase 9 (Homo sapiens)
PROCEDURE TEXT: Inhibition of JNK2 by ATF2 phosphorylation assay
The entries below are paired with their reported pIC50.
Bear in mind: pIC50 is minus log10 of a mol/L concentration; give just that figure.

Use these answered entries as a reference point.
Form: item CS(=O)(=O)c1ccc(CNC(=O)c2cc(N)c(C#N)c(-c3cccnc3)n2)cc1 ; test system Mitogen-activated protein kinase 9 (Homo sapiens); pIC50: 6.47

Form: item CS(=O)(=O)c1ccc(CNC(=O)c2cc(N)c(C#N)c(/C=C/CCO)n2)cc1 ; test system Mitogen-activated protein kinase 9 (Homo sapiens); pIC50: 6.62

New cases:
Form: item C[C@@H](CO)Nc1nc(C(=O)NCc2ccc(S(C)(=O)=O)cc2)cc(N)c1C#N ; test system Mitogen-activated protein kinase 9 (Homo sapiens); pIC50: 7.52

Form: item CC(C)COc1nc(C(=O)NCc2ccc(S(C)(=O)=O)cc2)cc(N)c1C#N ; test system Mitogen-activated protein kinase 9 (Homo sapiens); pIC50: 6.43

Form: item CS(=O)(=O)c1ccc(CNC(=O)c2cc(N)c(C#N)c(NCCC(N)=O)n2)cc1 ; test system Mitogen-activated protein kinase 9 (Homo sapiens); pIC50: 7.06

Form: item CCOc1nc(C(=O)NCc2ccc(S(C)(=O)=O)cc2)cc(N)c1/C=C/C(C)(C)C ; test system Mitogen-activated protein kinase 9 (Homo sapiens); pIC50: 5.38

Form: item CS(=O)(=O)c1ccc(CNC(=O)c2cc(N)c(C#N)c(-c3cccc(Cl)c3)n2)cc1 ; test system Mitogen-activated protein kinase 9 (Homo sapiens); pIC50: 6.08

Form: item C#C/C=C/c1c(N)cc(C(=O)NCc2ccc(S(C)(=O)=O)cc2)nc1OCC ; test system Mitogen-activated protein kinase 9 (Homo sapiens); pIC50: 6.52

Form: item CS(=O)(=O)c1ccc(CNC(=O)c2cc(N)c(C#N)c(NC3CCC3)n2)cc1 ; test system Mitogen-activated protein kinase 9 (Homo sapiens); pIC50: 6.80
